src = ChEMBL document CHEMBL1949649

- Protocol: Half life in Beagle dog at 1 mg/kg, iv
- Assay type: ADME, organism-based, Canis lupus familiaris
- Design: dose 1 mg/kg, route intravenous
- Reported conditions: in vivo
Measured quantity: half-life (h)
Express your answer in h, writing the number without its unit.

Smiles data	Quantitative readout
CC(=O)N1CCC(Cn2c(C(C)(C)C)nc3cc(S(=O)(=O)CC4CC4)ccc32)CC1	3

// below: half-life requested for another compound
Please look at this compound and report its half-life: "CC(=O)N1CCC(Cn2c(C(C)(C)C)nc3cc(S(=O)(=O)c4nccs4)ccc32)CC1"
4
